# Test system: Kocuria rhizophila
# EXPERIMENT DESCRIPTION: Antibacterial activity against Sarcina luteus ATCC 9341 assessed as growth inhibition at 4 mg/disc after 24 hrs by disc diffusion assay
# Format: functional, DC2201
MEASURED PROPERTY: diameter of the inhibition zone (DIZ) (mm)
API: value field is a number in mm; no unit string.

Consider the worked cases shown below.
CCOC(=O)c1c(C(F)(F)F)c2cccnn2c1C(=O)c1ccc(C)cc1; 60
CCOC(=O)c1c(C(F)(F)F)c2cccnn2c1C(=O)c1ccc(F)cc1; 41
CCOC(=O)[C@H]1[C@H](C(F)(F)F)[C@@H]2C=CC=NN2[C@H]1C(=O)c1ccc(C)cc1; 61
Cc1ccc(C(=O)[C@H]2C[C@H](C(=O)OCC(F)(F)F)[C@@H]3C=CC=NN23)cc1; 59
CCOC(=O)c1c(C(F)(F)F)c2cccnn2c1C(=O)c1ccc(Cl)cc1; 44
O=C(OCC(F)(F)F)[C@H]1C[C@H](C(=O)c2ccc(F)cc2)N2N=CC=C[C@@H]12; 55
CCOC(=O)[C@H]1[C@H](C(F)(F)F)[C@@H]2C=CC=NN2[C@H]1C(=O)c1ccc(F)cc1; 58

Could you now consider this next compound?
Note down diameter of the inhibition zone (DIZ) recorded for O=C(OCC(F)(F)F)[C@H]1C[C@H](C(=O)c2ccc(Cl)cc2)N2N=CC=C[C@@H]12
58
